target: human glucagon receptor (human) (UniProt P47871); experiment: cell-based or functional assay
Sequence (P47871 26-477): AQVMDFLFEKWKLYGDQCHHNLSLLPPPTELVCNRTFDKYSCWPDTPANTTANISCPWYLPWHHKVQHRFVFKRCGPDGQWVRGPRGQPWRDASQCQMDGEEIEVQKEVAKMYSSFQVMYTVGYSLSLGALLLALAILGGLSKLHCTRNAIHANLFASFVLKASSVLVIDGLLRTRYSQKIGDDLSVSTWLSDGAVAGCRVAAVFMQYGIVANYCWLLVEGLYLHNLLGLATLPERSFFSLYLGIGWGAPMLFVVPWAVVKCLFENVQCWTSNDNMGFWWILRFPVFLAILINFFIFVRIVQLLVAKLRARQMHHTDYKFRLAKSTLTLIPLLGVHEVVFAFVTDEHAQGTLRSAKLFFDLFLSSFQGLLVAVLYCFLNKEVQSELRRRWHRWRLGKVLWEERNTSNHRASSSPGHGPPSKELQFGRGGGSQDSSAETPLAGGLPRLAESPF
hey, just use T if measured cAMP Rel EC50 (1% HSA) is less than 2000 nM, otherwise F

>>> class("YXQGTFTSDXSQXLDKKAQXAFIEYLIEXGPSSGAPPPSEE (non-natural residues; lipidated Lys; D-Glu; synthetic construct; SITE 2: note = 2-Aminoisobutyric Acid; SITE 10: note = 3-(4-Pyridyl)-L-alanine; SITE 13: note = alpha-methyl-leucine; SITE 17: note = Lysine is chemically modified through conjugation of the epsilon-amino group of the Lysine side chain with (2-[2-(2-Amino-ethoxy)-ethoxy]-acetyl)) [Example 919]")
"T"
>>> class("YXQGTXTSDXSILLDKKAQXAFIEYLXEGGPSSGAPPPSGTGE (synthetic construct; SITE 2: note = 2-Aminoisobutyric Acid; SITE 6: note = alpha-methyl-2-fluoro-L-phenylalanine; SITE 10: note = 3-(4-Pyridyl)-L-alanine; SITE 17: note = Lysine is chemically modified through conjugation of the epsilon-amino group of the Lysine side chain with (2-[2-(2-Amino-ethoxy))) [Example 663]")
"T"
>>> class("YXQGTFTSDXSQXLDXKAQXAFIQXLIEGGPSSGAPPPSGSEE (Aib, 4Pal, αMeL, Orn, Me4Pal, αMeY; acylated Lys; C-terminal amide; synthetic construct; SITE 2: note = 2-Aminoisobutyric Acid; SITE 10: note = 3-(4-Pyridyl)-L-alanine; SITE 13: note = alpha-methyl-leucine; SITE 16: note = L-ornithine; SITE 17: note = Lysine is chemically modified through conjugation of the epsilon-amino group of the Lysine side chain with D-Glutami) [Example 1072]")
"T"
>>> class("YXQGTFTSDXSKXLDKKAQXAFIEYLIEXGPSSGAPPPSGSEEE (non-natural residues; (γGlu)2-C18 diacid on Lys; C-terminal amide; synthetic construct; SITE 2: note = 2-Aminoisobutyric Acid; SITE 10: note = 3-(4-Pyridyl)-L-alanine; SITE 13: note = alpha-methyl-leucine; SITE 17: note = Lysine is chemically modified through conjugation of the epsilon-amino group of the Lysine side chain with (gamma-Glu)2-CO-(CH2)16-CO2H; SITE 20:) [Example 906]")
"T"
>>> class("YXQGTFTSDXSQXLDKKAQXAFIEYLLEAGPSSXAPPPSGT (synthetic construct; SITE 2: note = 2-Aminoisobutyric Acid; SITE 10: note = 3-(4-Pyridyl)-L-alanine; SITE 13: note = alpha-methyl-leucine; SITE 17: note = Lysine is chemically modified through conjugation of the epsilon-amino group of the Lysine side chain with (2-[2-(2-Amino-ethoxy)-ethoxy]-acetyl)) [Example 825]")
"T"
>>> class("YXQGTXTSDXXIXLDXKAAXEFIEXLIEGGPSSGAPPPSGEEE (synthetic construct; SITE 2: note = 2-Aminoisobutyric Acid; SITE 6: note = alpha-methyl-2-fluoro-L-phenylalanine; SITE 10: note = 3-(4-Pyridyl)-L-alanine; SITE 11: note = alpha-methyl-L-serine; SITE 13: note = alpha-methyl-leucine; SITE 16: note = L-ornithine; SITE 17: note = Lysine is chemically mo) [Example 705]")
"T"
>>> class("YXQGTFTSDFSRXLDKKAQXAFIEYLIEXSPSSGAPPPSGS (synthetic construct; SITE 2: note = 2-Aminoisobutyric Acid; SITE 13: note = alpha-methyl-leucine; SITE 17: note = Lysine is chemically modified through conjugation of the epsilon-amino group of the Lysine side chain with (2-[2-(2-Amino-ethoxy)-ethoxy]-acetyl)-(gamma-Glu)-CO-(CH2) 16-CO2H; SITE 20: n) [Example 806]")
"F"
>>> class("YXQGTFTSDXSQXLDKKAQXAFIEYLIEXGPSSGAPPPSGSE (C-terminal amide; lysine acylated with γ-Glu-C18 diacid; synthetic construct; SITE 2: note = 2-Aminoisobutyric Acid; SITE 10: note = 3-(4-Pyridyl)-L-alanine; SITE 13: note = alpha-methyl-leucine; SITE 17: note = Lysine is chemically modified through conjugation of the epsilon-amino group of the Lysine side chain with D-Glutamic acid-(gamma-Glu)-CO-(CH2)16) [Example 924]")
"T"
>>> class("YXQGTFTSDXSQXLDKKAQXAFIEYLIEXGPSSGAPPPSGSEE (non-natural residues, γGlu-C18 diacid acyl on K, C-terminal amide; synthetic construct; SITE 2: note = 2-Aminoisobutyric Acid; SITE 10: note = 3-(4-Pyridyl)-L-alanine; SITE 13: note = alpha-methyl-leucine; SITE 17: note = Lysine is chemically modified through conjugation of the epsilon-amino group of the Lysine side chain with (D-Glutamic acid)2-(gamma-Glu)-CO-(CH2)) [Example 929]")
"F"
>>> class("YXQGTFTSDXSQXLDKKAQXAFIEXLLEGGPSSGAPPPSGS (non-natural residues; lipidated Lys; C-terminal amide; synthetic construct; SITE 2: note = 2-Aminoisobutyric Acid; SITE 10: note = 3-(4-Pyridyl)-L-alanine; SITE 13: note = alpha-methyl-leucine; SITE 17: note = Lysine is chemically modified through conjugation of the epsilon-amino group of the Lysine side chain with (2-[2-(2-Amino-ethoxy)-ethoxy]-acetyl)) [Example 910]")
"F"
